- Tested System: hVR1 (Homo sapiens)
- Construct: expressed in transfected cells
- Sequence (Q8NER1 whole entry): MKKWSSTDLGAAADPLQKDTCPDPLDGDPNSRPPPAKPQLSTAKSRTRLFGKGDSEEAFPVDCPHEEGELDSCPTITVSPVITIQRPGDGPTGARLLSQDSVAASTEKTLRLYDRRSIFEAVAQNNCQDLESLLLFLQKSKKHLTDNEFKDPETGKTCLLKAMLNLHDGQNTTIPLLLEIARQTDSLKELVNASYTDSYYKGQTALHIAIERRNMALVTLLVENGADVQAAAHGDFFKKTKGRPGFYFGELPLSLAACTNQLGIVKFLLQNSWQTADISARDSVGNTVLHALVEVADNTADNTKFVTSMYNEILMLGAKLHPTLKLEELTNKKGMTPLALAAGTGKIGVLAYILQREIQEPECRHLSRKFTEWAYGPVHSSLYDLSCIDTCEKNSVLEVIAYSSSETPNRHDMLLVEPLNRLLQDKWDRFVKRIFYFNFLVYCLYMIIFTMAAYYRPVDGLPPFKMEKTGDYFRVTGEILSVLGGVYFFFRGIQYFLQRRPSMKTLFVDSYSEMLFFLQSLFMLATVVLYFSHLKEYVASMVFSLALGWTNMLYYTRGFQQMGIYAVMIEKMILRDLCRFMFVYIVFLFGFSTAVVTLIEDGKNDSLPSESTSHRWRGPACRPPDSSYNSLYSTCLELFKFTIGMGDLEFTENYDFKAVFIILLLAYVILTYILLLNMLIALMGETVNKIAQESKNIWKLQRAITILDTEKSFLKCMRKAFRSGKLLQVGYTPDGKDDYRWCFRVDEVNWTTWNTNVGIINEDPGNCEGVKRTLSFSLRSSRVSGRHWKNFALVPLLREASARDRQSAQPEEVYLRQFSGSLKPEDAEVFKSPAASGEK
- Assay Text: hVR1 FLIPR (Fluorometric Image Plate Reader) screening assay, IC50 determination
- Type: cell-based
- Condition: agonist capsaicin; CHO cells stably expressing hVR1
Parameter Measured: IC50 (nM)
Give a bare numeral; the unit nM is implied.

// IC50 lookup, key: O=C(Cn1cnc2cccc([N+](=O)[O-])c21)Nc1cc(F)cc(F)c1 [Example 7]
50

Continue with the next compound.
Which IC50 value belongs to COC(=O)c1cccc2ncn(CC(=O)Nc3cc(OC)cc(OC)c3)c12 [Example 67] ?
160
